Reported IC50 values for a set of compounds
# System: 377384-186-R-J1-PDC complex spheroid viability
# assay.comment: Anticancer human tumor 377384-186-R-J1-PDC patient-derived pancreatic carcinoma cell line growth inhibition [RAS]
# conditions: curve of first compound; second compound 0.00949 µM

C[C@@H](NC(=O)c1ncnc(N)c1Cl)c1ncc(C(=O)Nc2cc(C(F)(F)F)c(Cl)cn2)s1 + CCn1c(-c2cccnc2C(C)OC)c2c3cc(ccc31)N1CCOC(CC(NC(=O)C(C(C)C)N(C)C(=O)C3(F)CCN(C(=O)C#CC(C)(C)N(C)C)CC3)C(=O)N3CCCC(N3)C(=O)OCC(C)(C)C2)C1    > 10000 nM
NC1c2ccccc2OC12CCN(c1cnc3c(N4CCCc5ncccc54)n[nH]c3n1)CC2 (centres undefined) + CCn1c(-c2cc(N3CCN(C)CC3)cnc2C(C)OC)c2c3cc(ccc31)-c1csc(n1)CC(NC(=O)C1CC1C)C(=O)N1CCCC(N1)C(=O)OCC(C)(C)C2    < 31.6 nM
C=CC(=O)Nc1cc(Nc2nccc(-c3cn(C)c4ccccc34)n2)c(OC)cc1N(C)CCN(C)C + CCn1c(-c2cccnc2C(C)OC)c2c3cc(ccc31)N1CCOC(CC(NC(=O)C(C(C)C)N(C)C(=O)C3(F)CCN(C(=O)C#CC(C)(C)N(C)C)CC3)C(=O)N3CCCC(N3)C(=O)OCC(C)(C)C2)C1    682 nM

Shifting focus to the compound that follows.
Request: Please report the measured IC50 for CCN1CCN(Cc2ccc(Nc3ncc(F)c(-c4cc(F)c5nc(C)n(C(C)C)c5c4)n3)nc2)CC1 + CCn1c(-c2cc(N3CCN(C)CC3)cnc2C(C)OC)c2c3cc(ccc31)-c1csc(n1)CC(NC(=O)C1CC1C)C(=O)N1CCCC(N1)C(=O)OCC(C)(C)C2
Response: < 3.16 nM

* * *

# System: 377384-186-R-J1-PDC complex spheroid viability
# assay.comment: Anticancer human tumor 377384-186-R-J1-PDC cell line growth inhibition [RAS];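 also: spheroids exposed to compounds for seven days before readout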
# conditions: second compound 0.1 µM; first compound 1 µM; stronger effect = lower value
Reported viability, T/C values for a set of compounds
Reply numerically in %, unit not repeated.

Request: Look up and report viability, T/C, with 377384-186-R-J1-PDC complex spheroid viability as system, for Nc1ccn(C2OC(CO)C(O)C2(F)F)c(=O)n1 (centres undefined) + C#Cc1c(F)ccc2cc(O)cc(-c3ncc4c(N5CC6CCC(C5)N6)nc(OCC56CCCN5CC(F)C6)nc4c3F)c12
Response: 1.59

Request: Look up and report viability, T/C, with 377384-186-R-J1-PDC complex spheroid viability as system, for NC1c2ccccc2OC12CCN(c1cnc3c(N4CCCc5ncccc54)n[nH]c3n1)CC2 (centres undefined) + C#Cc1c(F)ccc2cc(O)cc(-c3ncc4c(N5CC6CCC(C5)N6)nc(OCC56CCCN5CC(F)C6)nc4c3F)c12
Response: 0.62

Request: Look up and report viability, T/C, with 377384-186-R-J1-PDC complex spheroid viability as system, for C=CC(=O)Nc1cc(Nc2nccc(-c3cn(C)c4ccccc34)n2)c(OC)cc1N(C)CCN(C)C + C=CC(=O)N1CCN(c2nc(OCC3CCCN3C)nc3c(F)c(-c4nc(N)cc(C)c4C(F)(F)F)c(Cl)cc23)C(C)C1
Response: 46

Request: Look up and report viability, T/C, with 377384-186-R-J1-PDC complex spheroid viability as system, for CCN1CCN(Cc2ccc(Nc3ncc(F)c(-c4cc(F)c5nc(C)n(C(C)C)c5c4)n3)nc2)CC1 + C#Cc1c(F)ccc2cc(O)cc(-c3ncc4c(N5CC6CCC(C5)N6)nc(OCC56CCCN5CC(F)C6)nc4c3F)c12
Response: 2.94

Request: Look up and report viability, T/C, with 377384-186-R-J1-PDC complex spheroid viability as system, for CC1(O)CCCC1n1c(=O)c(C(F)F)cc2cnc(NC3CCN(S(C)(=O)=O)CC3)nc21 (centres undefined) + C#Cc1c(F)ccc2cc(O)cc(-c3ncc4c(N5CC6CCC(C5)N6)nc(OCC56CCCN5CC(F)C6)nc4c3F)c12
Response: 7.97

* * *

# Tested on: 377384-186-R-J1-PDC complex spheroid viability
# assay.comment: Anticancer human tumor 377384-186-R-J1-PDC cell line growth inhibition [RAS];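 also: spheroids exposed to compounds for seven days before readout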
# conditions: second compound 0.0949 µM; first compound 0.003 µM; stronger effect = lower value
Reported viability, T/C values for a set of molecules
Reply numerically in %, unit not repeated.

Solved entries (count: 3):
CC1(C)CCC(Nc2ncc(C(F)(F)F)c(-c3c[nH]c4c(P(C)(C)=O)c(C#N)ccc34)n2)CN1 (centres undefined) + CCn1c(-c2cc(N3CCN(C)CC3)cnc2C(C)OC)c2c3cc(ccc31)-c1csc(n1)CC(NC(=O)C1CC1C)C(=O)N1CCCC(N1)C(=O)OCC(C)(C)C2    2.11
CC1(C)CCC(Nc2ncc(C(F)(F)F)c(-c3c[nH]c4c(P(C)(C)=O)c(C#N)ccc34)n2)CN1 (centres undefined) + CCn1c(-c2cccnc2C(C)OC)c2c3cc(ccc31)N1CCOC(CC(NC(=O)C(C(C)C)N(C)C(=O)C3(F)CCN(C(=O)C#CC(C)(C)N(C)C)CC3)C(=O)N3CCCC(N3)C(=O)OCC(C)(C)C2)C1    61.7
CCc1c2c(nc3ccc(O)cc13)-c1cc3c(c(=O)n1C2)COC(=O)[C@]3(O)CC + CCn1c(-c2cccnc2C(C)OC)c2c3cc(ccc31)N1CCOC(CC(NC(=O)C(C(C)C)N(C)C(=O)C3(F)CCN(C(=O)C#CC(C)(C)N(C)C)CC3)C(=O)N3CCCC(N3)C(=O)OCC(C)(C)C2)C1    34.9

Shifting focus to the molecule that follows.
Request: Look up and report viability, T/C, with 377384-186-R-J1-PDC complex spheroid viability as system, for CCc1c2c(nc3ccc(O)cc13)-c1cc3c(c(=O)n1C2)COC(=O)[C@]3(O)CC + CCn1c(-c2cc(N3CCN(C)CC3)cnc2C(C)OC)c2c3cc(ccc31)-c1csc(n1)CC(NC(=O)C1CC1C)C(=O)N1CCCC(N1)C(=O)OCC(C)(C)C2
Response: 1.94

* * *

# System: 377384-186-R-J1-PDC complex spheroid viability
# assay.comment: Anticancer human tumor 377384-186-R-J1-PDC cell line growth inhibition [RAS];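 also: spheroids exposed to compounds for seven days before readout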
# conditions: second compound 0.3 µM; first compound 0.316 µM; stronger effect = lower value
Reported viability, T/C values for a set of compounds
Reply numerically in %, unit not repeated.

CC1(O)CCCC1n1c(=O)c(C(F)F)cc2cnc(NC3CCN(S(C)(=O)=O)CC3)nc21 (stereo not drawn) + CCn1c(-c2cccnc2C(C)OC)c2c3cc(ccc31)N1CCOC(CC(NC(=O)C(C(C)C)N(C)C(=O)C3(F)CCN(C(=O)C#CC(C)(C)N(C)C)CC3)C(=O)N3CCCC(N3)C(=O)OCC(C)(C)C2)C1    18.6
Nc1ccn(C2OC(CO)C(O)C2(F)F)c(=O)n1 (stereo not drawn) + CCn1c(-c2cc(N3CCN(C)CC3)cnc2C(C)OC)c2c3cc(ccc31)-c1csc(n1)CC(NC(=O)C1CC1C)C(=O)N1CCCC(N1)C(=O)OCC(C)(C)C2    1.95

Shifting focus to the compound that follows.
Request: Please report the measured viability, T/C for C[C@@H](NC(=O)c1ncnc(N)c1Cl)c1ncc(C(=O)Nc2cc(C(F)(F)F)c(Cl)cn2)s1 + CCn1c(-c2cccnc2C(C)OC)c2c3cc(ccc31)N1CCOC(CC(NC(=O)C(C(C)C)N(C)C(=O)C3(F)CCN(C(=O)C#CC(C)(C)N(C)C)CC3)C(=O)N3CCCC(N3)C(=O)OCC(C)(C)C2)C1
Response: 85.5

* * *

Reported viability, T/C values for a set of molecules
# System: 377384-186-R-J1-PDC complex spheroid viability
# assay.comment: Anticancer human tumor 377384-186-R-J1-PDC cell line growth inhibition [RAS];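 also: spheroids exposed to compounds for seven days before readout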
# conditions: second compound 0.316 µM; first compound 0.316 µM; stronger effect = lower value
# From the text: RAS pathway inhibitors in Combinations in Complex Spheroids A high-throughput screen of multi-cell type tumor spheroids was designed to identify active combinations of RAS pathway inhibitors and targeted small molecules. Complex spheroids include a stromal component modeled by human endothelial cells (HUVEC) and fibroblasts modeled by human mesenchymal stem cells (MSCs). […] Compounds. […] If the clinical Cmax for an agent had not been determined, the highest concentration tested was 10 microM. […]
Reply numerically in %, unit not repeated.

Solved entries (count: 5):
C=CC(=O)Nc1cc(Nc2nccc(-c3cn(C)c4ccccc34)n2)c(OC)cc1N(C)CCN(C)C + C#Cc1c(F)ccc2cc(O)cc(-c3ncc4c(N5CC6CCC(C5)N6)nc(OCC56CCCN5CC(F)C6)nc4c3F)c12    1.28
Cc1nc(N2CCC3(CC2)COC(C)C3N)c(CO)nc1Sc1ccnc(N)c1Cl (stereo not given) + C#Cc1c(F)ccc2cc(O)cc(-c3ncc4c(N5CC6CCC(C5)N6)nc(OCC56CCCN5CC(F)C6)nc4c3F)c12    0.84
CC(C)NCC(C(=O)N1CCN(c2ncnc3c2C(C)CC3O)CC1)c1ccc(Cl)cc1 (stereo not given) + C=CC(=O)N1CCN(c2nc(OCC3CCCN3C)nc3c(F)c(-c4nc(N)cc(C)c4C(F)(F)F)c(Cl)cc23)C(C)C1    80.9
C[C@@H](NC(=O)c1ncnc(N)c1Cl)c1ncc(C(=O)Nc2cc(C(F)(F)F)c(Cl)cn2)s1 + C#Cc1c(F)ccc2cc(O)cc(-c3ncc4c(N5CC6CCC(C5)N6)nc(OCC56CCCN5CC(F)C6)nc4c3F)c12    10.6
Nc1ccn(C2OC(CO)C(O)C2(F)F)c(=O)n1 (stereo not given) + C#Cc1c(F)ccc2cc(O)cc(-c3ncc4c(N5CC6CCC(C5)N6)nc(OCC56CCCN5CC(F)C6)nc4c3F)c12    1.53

Request: Please report the measured viability, T/C for CC(=O)OC12COC1CC(O)C1(C)C(=O)C(O)C3=C(C)C(OC(=O)C(O)C(NC(=O)OC(C)(C)C)c4ccccc4)CC(O)(C(OC(=O)c4ccccc4)C21)C3(C)C (stereo not given) + C#Cc1c(F)ccc2cc(O)cc(-c3ncc4c(N5CC6CCC(C5)N6)nc(OCC56CCCN5CC(F)C6)nc4c3F)c12
Response: 2

Request: Please report the measured viability, T/C for CC1(O)CCCC1n1c(=O)c(C(F)F)cc2cnc(NC3CCN(S(C)(=O)=O)CC3)nc21 (stereo not given) + C#Cc1c(F)ccc2cc(O)cc(-c3ncc4c(N5CC6CCC(C5)N6)nc(OCC56CCCN5CC(F)C6)nc4c3F)c12
Response: 3.71

Request: Please report the measured viability, T/C for CC(Nc1ccc2c(c1)OCCn1cc(N3C(=O)OCC3C(F)F)nc1-2)C(N)=O (stereo not given) + C#Cc1c(F)ccc2cc(O)cc(-c3ncc4c(N5CC6CCC(C5)N6)nc(OCC56CCCN5CC(F)C6)nc4c3F)c12
Response: 1.59

Request: Please report the measured viability, T/C for CCC(CC)c1cc(NC2CCC(N)C2)n2nccc2n1 (stereo not given) + C=CC(=O)N1CCN(c2nc(OCC3CCCN3C)nc3c(F)c(-c4nc(N)cc(C)c4C(F)(F)F)c(Cl)cc23)C(C)C1
Response: 101

Request: Please report the measured viability, T/C for CC(Nc1ccc2c(c1)OCCn1cc(N3C(=O)OCC3C(F)F)nc1-2)C(N)=O (stereo not given) + C=CC(=O)N1CCN(c2nc(OCC3CCCN3C)nc3c(F)c(-c4nc(N)cc(C)c4C(F)(F)F)c(Cl)cc23)C(C)C1
Response: 43.2

// provenance: PubChem BioAssay AID2060903
